Recorded values, source PubChem BioAssay (NCATS).

- System: CP262
- Assay Info: qHTS profiling for inhibitors of Plasmodium falciparum proliferation (AID 504749); note: nearly all actives have a fitted effect of over 60% in size
- Condition: P. falciparum in erythrocytes, SYBR Green DNA, 72 h; series mostly up to 28.7 µM
Results filed as inconclusive are left out. Activity calls are given as the source filed them. Calls come from the whole dose curve; as a rule, active = well fitted inhibition curve with a large enough effect; inconclusive = small, poorly fitted or top-dose-only effect; inactive = flat fitted curve, though single readings scatter.
Your response should consist of one outcome taken from active, inactive

INSERT INTO measurements (compound, cat) VALUES
  ('CCOC(=O)c1cccc(N)c1', 'inactive'),
  ('CCCCN1CCCC1C(=O)Nc1c(C)cc(C)cc1C (configuration not stated)', 'inactive'),
  ('CC(O)(P(=O)(O)O)P(=O)(O)O', 'inactive'),
  ('Cc1cccn2c(=O)c(-c3nnn[nH]3)cnc12', 'inactive'),
  ('O=C(CCCN1CCC(O)(c2ccc(Br)cc2)CC1)c1ccc(F)cc1', 'inactive'),
  ('CC(=O)c1ccc2c(c1)N(CCCN1CCC(CCO)CC1)c1ccccc1S2', 'inactive');

Hello, I am checking results. What call was entered for `CCCCCCCCCCCCCCCC[N+](C)(C)CC` ?
active

Same read-out for `O=C(Nc1ccc(Oc2ccc(Cl)cc2)c(Cl)c1)c1cc(I)cc(I)c1O` ?
inactive

Same read-out for `COC(=O)[C@H]1[C@H]2C[C@H]3c4[nH]c5ccccc5c4CCN3C[C@H]2CC[C@@H]1O` ?
inactive

Same read-out for `CCn1cc(C(=O)O)c(=O)c2cnc(N3CCCC3)nc21` ?
inactive

Same read-out for `CCN1CCCC1=O` ?
inactive

Same read-out for CCCCCCCCCCOCC(O)CN (configuration not stated) ?
inactive

* * *

- Assay Info: qHTS of pediatric cancer cell lines to identify multiple opportunities for drug repurposing: Primary screen for NB1643 cells (AID 1347099); note: nearly all actives have a fitted effect of over 50% in size
- Condition: NB1643 neuroblastoma viability, CellTiter-Glo luminescence, 48 h; series mostly up to 46 µM
Records with an inconclusive call do not appear. Activity calls are given as the source filed them. Calls come from the whole dose curve; as a rule, active = well fitted cell-killing curve with a large enough effect; inconclusive = small, poorly fitted or top-dose-only effect; inactive = no such curve, though single readings can be large or run the other way.
Your response should consist of one outcome taken from t (active), f (inactive)

Here are 6 molecules together with their reported answers.
INSERT INTO assay_data (smiles_string, cat) VALUES
  ('COC1=CC(=O)C[C@@H](C)[C@]12Oc1c(Cl)c(OC)cc(OC)c1C2=O', 'f'),
  ('CCN(CCCc1ccccc1)CCCc1ccccc1', 'f'),
  ('COc1cc(OC)cc(OC)c1', 'f'),
  ('O=c1ccc2ccccc2o1', 'f'),
  ('O=c1c(-c2ccccc2)c1-c1ccccc1', 't'),
  ('CCN1CCCC1=O', 'f');

Hello, I am checking results. What call was entered for `NC(=O)CC[C@@H]1NC(=O)[C@H](Cc2ccccc2)NC(=O)[C@H](Cc2ccc(O)cc2)NC(=O)CCSSC[C@@H](C(=O)N2CCC[C@H]2C(=O)N[C@@H](CCCN=C(N)N)C(=O)NCC(N)=O)NC(=O)[C@H](CC(N)=O)NC1=O` ?
f

Same read-out for `COc1cccc2c1C(=O)c1c(O)c3c(c(O)c1C2=O)C[C@@](O)(C(=O)CO)C[C@@H]3O[C@H]1C[C@H](N)[C@H](O)[C@H](C)O1` ?
t

* * *

- Experimental Target: DNA repair nuclease/redox regulator APEX1 (Homo sapiens) (UniProt P27695)
- Sequence (P27695 whole entry, looked up): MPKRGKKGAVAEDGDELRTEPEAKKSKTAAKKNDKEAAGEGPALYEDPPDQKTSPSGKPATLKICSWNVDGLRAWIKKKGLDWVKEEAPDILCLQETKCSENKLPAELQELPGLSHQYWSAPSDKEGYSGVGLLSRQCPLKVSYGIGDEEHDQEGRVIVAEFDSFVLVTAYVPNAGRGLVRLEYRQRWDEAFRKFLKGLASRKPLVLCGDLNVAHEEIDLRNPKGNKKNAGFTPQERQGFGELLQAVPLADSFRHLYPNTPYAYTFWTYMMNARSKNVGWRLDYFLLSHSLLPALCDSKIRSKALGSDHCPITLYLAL
- Assay Info: qHTS Validation Assay for Inhibitors of the Human Apurinic/apyrimidinic Endonuclease 1 (APE1) (AID 1705;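 note: TAMRA fluorescence gain over two minutes as APE1 cuts a quenched THF abasic duplex; % is set by controls: 0 for no effect and ±100 for the full control effect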)
- Condition: purified APE1 endonuclease activity, fluorescence, titration; series mostly up to 57.1 µM
Records with an inconclusive call do not appear. Active and inactive are the calls of the source. Calls follow the shape of the dose curve; as a rule, active = well fitted inhibition curve with a large enough effect; inconclusive = small, poorly fitted or top-dose-only effect; inactive = flat fitted curve, though single readings scatter.
Measured Attribute: outcome

INSERT INTO assay_data (compound, test_value) VALUES
  ('Nc1cc(Cl)c(NC2=NCCN2)c(Cl)c1', 'inactive'),
  ('O=C(O)c1cc2cc(Cc3cccnc3)ccc2o1', 'inactive'),
  ('CC(CCc1ccccc1)NCC(O)c1ccc(O)c(C(N)=O)c1 (stereo not drawn)', 'inactive');

* * *

Reported max response values follow for various compounds
- Experimental Target: Peroxisome proliferator-activated receptor alpha (Homo sapiens) (UniProt Q07869)
- Sequence (Q07869 whole entry, looked up): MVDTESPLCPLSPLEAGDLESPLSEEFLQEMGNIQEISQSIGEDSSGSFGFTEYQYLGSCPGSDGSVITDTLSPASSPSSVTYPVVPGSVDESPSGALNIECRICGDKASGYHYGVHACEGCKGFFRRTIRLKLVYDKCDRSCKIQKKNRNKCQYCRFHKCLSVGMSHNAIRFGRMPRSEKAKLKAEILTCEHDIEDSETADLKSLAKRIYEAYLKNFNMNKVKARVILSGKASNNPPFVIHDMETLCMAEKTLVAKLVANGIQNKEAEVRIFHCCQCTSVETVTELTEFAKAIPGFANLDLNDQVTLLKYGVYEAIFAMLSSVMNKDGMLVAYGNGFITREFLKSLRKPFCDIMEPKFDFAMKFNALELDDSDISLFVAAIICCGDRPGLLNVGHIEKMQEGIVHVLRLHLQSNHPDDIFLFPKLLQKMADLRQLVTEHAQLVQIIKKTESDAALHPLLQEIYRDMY
- Assay Info: qHTS assay for small molecule agonists of the peroxisome proliferator-activated receptor alpha (PPARalpha) signaling pathway (AID 651778); note: % of control where 0% means no effect
- Condition: PathHunter PPARalpha complementation, chemiluminescence, 6 h; stronger effect = higher value
Answer in %, number only, no unit symbol.

# count of solved cases: 3
INSERT INTO results (smiles_string, measured_attribute, unit_of_measure, test_value) VALUES
  ('CC(=O)Oc1ccc(C(c2ccc(OC(C)=O)cc2)c2ccccn2)cc1', 'max response', '%', -4.57),
  ('CN(C)C(=S)SC(=S)N(C)C', 'max response', '%', 0.0294),
  ('COC1=CC(=O)C[C@@H](C)[C@]12Oc1c(Cl)c(OC)cc(OC)c1C2=O', 'max response', '%', 2.03);

What does the data say about its max response? Entry: `CC(O)(P(=O)(O)O)P(=O)(O)O`
0.583

Same read-out for `O=C(O)CCCCC(=O)O` ?
-5.15

Same read-out for `C[C@]12CC[C@@H]3c4ccc(O)cc4CC[C@H]3[C@@H]1CC[C@@H]2O` ?
0.86

Same read-out for `C[C@H]1C[C@H]2[C@@H]3CCC4=CC(=O)C=C[C@]4(C)[C@@]3(Cl)[C@@H](O)C[C@]2(C)[C@@]1(O)C(=O)CO` ?
3.36

Same read-out for `COc1cccc2c1C(=O)c1c(O)c3c(c(O)c1C2=O)C[C@@](O)(C(C)=O)C[C@@H]3O[C@H]1C[C@H](N)[C@H](O)[C@H](C)O1` ?
-9.3

Same read-out for `Oc1ccc(Cl)cc1Sc1cc(Cl)ccc1O` ?
18

Same read-out for `Cc1cc(=O)n(-c2ccccc2)n1C` ?
0.347

* * *

Reported activity, negative = inhibition values follow for various compounds
- Assay Info: qHTS profiling for inhibitors of Plasmodium falciparum proliferation (AID 504749); note: nearly all actives have a fitted effect of over 60% in size;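 for activity, negative = inhibition: 0% = DMSO vehicle and full inhibition = artemisinin control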
- Condition: P. falciparum in erythrocytes, SYBR Green DNA, 72 h; at 12.8 µM (top of the series); parasite line B
Inconclusive results are not listed.
Answer in %, number only, no unit symbol.

INSERT INTO results (smiles_string, test_value) VALUES
  ('CN1CCN(C(c2ccccc2)c2ccccc2)CC1', -5.02),
  ('NCCCC[C@H](N[C@@H](CCc1ccccc1)C(=O)O)C(=O)N1CCC[C@H]1C(=O)O', 0.712),
  ('O=C(OCCOCCO)c1ccccc1Nc1cccc(C(F)(F)F)c1', 3.82),
  ('Cc1c(N(C)CS(=O)(=O)O)c(=O)n(-c2ccccc2)n1C', 23.3);

Moving on to another compound below.
What does the data say about its activity, negative = inhibition? Entry: `CC(=O)N(O)CCCCCNC(=O)CCC(=O)N(O)CCCCCNC(=O)CCC(=O)N(O)CCCCCN`
1.3

* * *

- Tested on: AS120
- Assay Info: qHTS profiling for inhibitors of Plasmodium falciparum proliferation (AID 504749); note: nearly all actives have a fitted effect of over 60% in size
- Condition: P. falciparum in erythrocytes, SYBR Green DNA, 72 h; series mostly up to 28.7 µM
Results filed as inconclusive are left out. Active and inactive are the calls of the source. Calls follow the shape of the dose curve; as a rule, active = well fitted inhibition curve with a large enough effect; inconclusive = small, poorly fitted or top-dose-only effect; inactive = flat fitted curve, though single readings scatter. Numbered stars: 1 amine (or outer) side, 2 acyl side, 3 side chain; on linkers, the order of the positions; unused ones are H or OH. Bridge positions count the residues as written; N and C are the ends. Square brackets hold non-standard residues; d marks the D form. Peptide text beside a SMILES is read from it. I, II: the chains in the order shown. Actinocin(9to1) = Cc1c2oc3c(C)ccc(C(=O)[*:1])c3nc-2c(C(=O)[*:2])c(N)c1=O; NMeV = CN[C@H](C(=O)O)C(C)C; Sar = CNCC(=O)O
Your response should consist of one outcome taken from active, inactive

INSERT INTO assay_data (molecule, cat) VALUES
  ('Cc1ccnc(NS(=O)(=O)c2ccc(N)cc2)n1', 'inactive'),
  ('O=C1[C@H]2CCCC[C@H]2C(=O)N1CCCCN1CCN(c2nsc3ccccc23)CC1', 'inactive'),
  ('Cc1cc(N)c2cc(NC(=O)Nc3ccc4nc(C)cc(N)c4c3)ccc2n1', 'active');

Hello, I am checking results. What call was entered for `CC(=O)N/N=C/c1ccc([N+](=O)[O-])o1` ?
active

Same read-out for CCN(CC)CCOC(=O)C(c1ccccc1)C1CCCCC1 (stereo not given) ?
inactive

Same read-out for `OC(CCN1CCCCC1)(c1ccccc1)c1ccccc1` ?
active

Same read-out for `CCN(CC)C(=O)N1CCN(C)CC1` ?
inactive

Same read-out for `CC(=O)Oc1ccc(C(c2ccc(OC(C)=O)cc2)c2ccccn2)cc1` ?
inactive

Same read-out for `Cc1c(N(C)CS(=O)(=O)O)c(=O)n(-c2ccccc2)n1C` ?
inactive

Same read-out for `CC(=O)N(O)CCCCCNC(=O)CCC(=O)N(O)CCCCCNC(=O)CCC(=O)N(O)CCCCCN` ?
inactive

Same read-out for `Cc1cc(=O)n(-c2ccccc2)n1C` ?
inactive

Same read-out for Cc1c2oc3c(C)ccc(C(=O)N[C@@H]4C(=O)N[C@H](C(C)C)C(=O)N5CCC[C@H]5C(=O)N(C)CC(=O)N(C)[C@@H](C(C)C)C(=O)O[C@@H]4C)c3nc-2c(C(=O)N[C@@H]2C(=O)N[C@H](C(C)C)C(=O)N3CCC[C@H]3C(=O)N(C)CC(=O)N(C)[C@@H](C(C)C)C(=O)O[C@@H]2C)c(N)c1=O (I: T[dV]P[Sar][NMeV] / II: T[dV]P[Sar][NMeV]; ester I:1-I:C, II:1-II:C; linker I:N-II:N via Actinocin(9to1)) ?
active

Same read-out for `C[N+]1(CCCCC[N+]2(C)CCCC2)CCCC1` ?
inactive

Same read-out for `CCN1CCC[C@H]1CNC(=O)c1c(OC)ccc(Br)c1OC` ?
inactive

Same read-out for `Nc1cc(Cl)c(NC2=NCCN2)c(Cl)c1` ?
inactive

Same read-out for `CC(=O)OCC(=O)NCCCOc1cccc(CN2CCCCC2)c1` ?
inactive

Same read-out for `CCCCc1nc(Cl)c(CO)n1Cc1ccc(-c2ccccc2-c2nn[nH]n2)cc1` ?
active

Same read-out for `Cc1c(C)n(Cc2ccccc2)c2ccc(C(=O)OCCN(C)C)cc12` ?
inactive

Same read-out for `CN1CCC[C@@H]1c1cccnc1` ?
inactive

Same read-out for `Cc1cc(O)c(C(C)C)cc1Cl` ?
inactive
